- Test system: MDA-MB-231
- test summary: NCI tumour cell line growth inhibition, 48 h
Activity calls are given as the source filed them. No stated cut-off is given here; in the data, active = GI50 up to about 1.1 µM and inactive = higher.
# valid calls are active, inactive; nothing else

Reference set (5 entries):
{"compound": "O=C(Cc1ccc(Cl)c(Cl)c1)N(CCc1ccc(Cl)c(Cl)c1)CCN1CCCC1", "discrete label": "inactive"}
{"compound": "CC1[C@@H](OCc2ccccc2)COC(=O)N1Cc1ccccc1 (stereo not given in full)", "discrete label": "inactive"}
{"compound": "O=C(N/N=C/c1ccc2c(c1)OCO2)Nc1ccccc1Cl", "discrete label": "inactive"}
{"compound": "C=CCc1cc(-c2cc(CC=C)c(O)c(CN(CC)CC)c2)cc(CN(CC)CC)c1O", "discrete label": "inactive"}
{"compound": "CC(/C=N/N=C1NCCCN1)=N\\N=C1NCCCN1", "discrete label": "inactive"}

stdin: Which outcome was entered for the compound CN(C)c1ccc(/C=C(/NC(=O)c2ccccc2)C(=O)Nc2ccccc2C(=O)O)cc1 in this test?
stdout: inactive

stdin: Which outcome was entered for the compound Cc1cnc(NCCCN(C)C)c2c1[nH]c1ccc3cc(O)ccc3c12 in this test?
stdout: active

stdin: Which outcome was entered for the compound COC(=O)[C@@H]1O[C@]12C(CO[Si](C)(C)C(C)(C)C)OC(n1ccc(=O)[nH]c1=O)C2O[Si](C)(C)C(C)(C)C (stereo not given in full) in this test?
stdout: inactive

stdin: Which outcome was entered for the compound CCCCOC(=O)NC(Nc1ccc(S(=O)(=O)Nc2ccc(OC)nn2)cc1)(C(F)(F)F)C(F)(F)F in this test?
stdout: inactive

stdin: Which outcome was entered for the compound CC(C)C[C@H]1[C@@H](OCc2ccccc2)COS(=O)(=O)N1[C@H](C)c1ccccc1 in this test?
stdout: inactive

---

- Test system: SN12C
- test summary: NCI tumour cell line growth inhibition, 48 h
Active and inactive are the calls of the source. Rule as the data show it: active = GI50 up to about 1.1 µM and inactive = higher.
Let's look at some compounds and their measured GI50.

stdin: Given the entry COc1cccc([C@@H]2CC(=O)c3cc4c(cc3N2)OCO4)c1 , report its measured GI50.
stdout: > 100 µM (inactive)

---

- Test system: NCI-H226
- test summary: NCI tumour cell line growth inhibition, 48 h
The source made the active and inactive calls. Cut-off read from the data, not from the text of the source: active = GI50 up to about 1.1 µM and inactive = higher.
# valid calls are active, inactive; nothing else

Reference set (5 entries):
{"compound": "Cc1cc(-c2c(F)cc3c4nn([C@H]5CC[C@@H](N(C)C)CC5)c(=O)c-4cn(C4CC4)c3c2F)cc(C)n1", "discrete label": "active"}
{"compound": "Cc1c2ncccc2cc2oc3ccccc3c(=O)c12", "discrete label": "inactive"}
{"compound": "O=C(c1ccncc1)C1C(=O)c2ccccc2C1C1(O)c2ccccc2CC1C(O)c1ccncc1 (stereo not given)", "discrete label": "inactive"}
{"compound": "C=C(C)C12CC3CC/C(=N/O)C(C1)C3(N1CCOCC1)C/C2=N/O (stereo not given)", "discrete label": "inactive"}
{"compound": "Fc1ccc(C(=C2CCN(CCc3ccc4[nH]c(=S)[nH]c4c3)CC2)c2ccc(F)cc2)cc1", "discrete label": "inactive"}

stdin: Which outcome was entered for the compound N#CCCN(CCC#N)c1ccc(/C=C2\N=C(c3ccccc3)N(c3ccc(Cl)cc3)C2=O)cc1 in this test?
stdout: inactive

stdin: Which outcome was entered for the compound OCCCCOC(c1ccccc1)(c1ccccc1)c1ccccc1 in this test?
stdout: inactive

stdin: Which outcome was entered for the compound CN(c1ccc(Cl)cc1)S(=O)(=O)c1cccc([N+](=O)[O-])c1 in this test?
stdout: inactive

stdin: Which outcome was entered for the compound CCCCC(C(=O)CCC(=O)Nc1ccc(Cl)c(Cl)c1)C(=O)C(C)C (stereo not given) in this test?
stdout: inactive

stdin: Which outcome was entered for the compound COc1cccc([C@@H]2CC(=O)c3cc4c(cc3N2)OCO4)c1 in this test?
stdout: inactive

---

Let's look at some compounds and their measured GI50.
- System: UACC-62
- test summary: NCI tumour cell line growth inhibition, 48 h
The source made the active and inactive calls. No stated cut-off is given here; in the data, active = GI50 up to about 1.1 µM and inactive = higher.

Guide cases for GI50, answers given:
{"compound": "CC(C)(C)C1=NC(=S)SC2=NC(=O)C3(NN21)c1ccccc1-c1ccccc13", "GI50": "> 10 µM (inactive)"}
{"compound": "CCCC(=O)N/S(=N/S(=O)(=O)c1ccc(Cl)cc1)C(Cl)(Cl)Cl (stereo not given)", "GI50": "> 100 µM (inactive)"}
{"compound": "CCOC(=O)c1c[nH]cc1-c1cn(S(=O)(=O)c2ccccc2)cc1C", "GI50": "15.3 µM (inactive)"}
{"compound": "COC(=O)c1c(O)ccc2c1c1c(n2Cc2cccc(C)c2)C(=O)c2ccccc2C1", "GI50": "32.6 µM (inactive)"}

stdin: Given the entry CCOc1ccccc1/N=C(/NC(=O)CC)SC , report its measured GI50.
stdout: > 10 µM (inactive)

---

- System: HT-29
- test summary: NCI tumour cell line growth inhibition, 48 h
The source made the active and inactive calls. Cut-off read from the data, not from the text of the source: active = GI50 up to about 1.1 µM and inactive = higher. Where a SMILES comes first, the peptide text is derived from it. [ ]: non-standard residue; d: D form. Phe(4-NO2) = N[CH](Cc1ccc([N+](=O)[O-])cc1)C(=O)O
Let's look at some compounds and their measured GI50.

{"compound": "S=c1sc2c(Cl)nc(Cl)nc2n1-c1ccccc1", "assay target": "HT-29", "GI50": "33 µM (inactive)"}
{"compound": "Nc1ncc(CN2CCCC2)c(-c2ccccc2O)n1", "assay target": "HT-29", "GI50": "> 750 µM (inactive)"}
{"compound": "C=C1c2ccccc2C(=O)c2c1c1c(C(=O)OC)c(O)ccc1n2Cc1ccccc1", "assay target": "HT-29", "GI50": "0.163 µM (active)"}
{"compound": "O=C1N/C(=N/N=C\\C(O)C(O)C(O)C(O)CO)N/C1=C\\c1ccc(Cl)cc1 (stereo not drawn)", "assay target": "HT-29", "GI50": "17.4 µM (inactive)"}

stdin: Given the entry Cc1ccc(C(=O)/C=C(O)/C(O)=C/C(=O)c2ccc(C)cc2C)c(C)c1 , report its measured GI50.
stdout: 2.48 µM (inactive)

stdin: Given the entry CCOC(=O)/C(=C\c1ccc(C#N)cc1)C(C)=O , report its measured GI50.
stdout: 33.4 µM (inactive)

stdin: Given the entry COC(=O)CCC(NC(=O)C(CCC(=O)OC)NC(=O)C(CCC(=O)OC)NC(=O)C(CCC(=O)OC)NC(=O)C(CCC(=O)OC)NC(=O)C(Cc1ccc([N+](=O)[O-])cc1)NC(=O)C(CCC(=O)OC)NC(=O)C(CCC(=O)OC)NC(=O)C(CCC(=O)OC)NC(=O)C(CCC(=O)OC)NC(=O)C(CCC(=O)OC)NC(C)=O)C(N)=O (stereo not drawn) (Ac-E(OMe)E(OMe)E(OMe)E(OMe)E(OMe)[Phe(4-NO2)]E(OMe)E(OMe)E(OMe)E(OMe)E(OMe)-NH2; configuration not given here) , report its measured GI50.
stdout: > 100 µM (inactive)

stdin: Given the entry O=c1cc(N2CCOCC2)oc2c(-c3ccccc3)cccc12 , report its measured GI50.
stdout: 6.25 µM (inactive)

---

Let's look at some compounds and their measured GI50.
- System: U-251
- test summary: NCI tumour cell line growth inhibition, 48 h
Calls of active or inactive are those of the source. Rule as the data show it: active = GI50 up to about 1.1 µM and inactive = higher.

{"compound": "CCc1ccc2oc(=O)ccc2c1", "assay target": "U-251", "GI50": "> 100 µM (inactive)"}
{"compound": "CC(C(=O)c1ccccc1)C1(O)C(=O)Nc2ccccc21 (stereo unspecified)", "assay target": "U-251", "GI50": "> 100 µM (inactive)"}
{"compound": "Cc1cc(S(=O)(=O)NC2=NCCCN2)c(S)cc1Cl", "assay target": "U-251", "GI50": "34.4 µM (inactive)"}
{"compound": "C=C1CC2(CC(c3ccccc3OC)OC(c3ccccc3OC)C2)OC1=O (stereo unspecified)", "assay target": "U-251", "GI50": "7.16 µM (inactive)"}
{"compound": "O=c1cc(N2CCOCC2)oc2c(-c3ccccc3)cccc12", "assay target": "U-251", "GI50": "19.5 µM (inactive)"}

We now examine a further compound.
stdin: Given the entry COc1ccc(C(=O)c2sc(Nc3ccccc3)nc2N)cc1 , report its measured GI50.
stdout: 12.7 µM (inactive)

---

- System: SF-268
- test summary: NCI tumour cell line growth inhibition, 48 h
Activity calls are given as the source filed them. Rule as the data show it: active = GI50 up to about 1.1 µM and inactive = higher.
Let's look at some compounds and their measured GI50.

{"compound": "COC(=O)c1ccccc1CC(Cc1ccc2c(c1)CCC2)C(=O)OC (stereo not given)", "GI50": "> 100 µM (inactive)"}
{"compound": "O=C(COc1ccc(OCC(=O)N/N=C/c2ccc(-c3ccc(Cl)cc3Cl)o2)c(Cl)c1)N/N=C/c1ccc(-c2ccc(Cl)cc2Cl)o1", "GI50": "41.6 µM (inactive)"}
{"compound": "COc1cc2c(c(OC)c1OC)-c1ccc(SC)c(=O)cc1C(NC(=O)c1ccccc1)CC2 (stereo not given)", "GI50": "< 0.01 µM (active)"}
{"compound": "CCCCOC(=O)NC(Nc1ccc(S(=O)(=O)Nc2ccc(OC)nn2)cc1)(C(F)(F)F)C(F)(F)F", "GI50": "> 100 µM (inactive)"}

We now examine a further compound.
stdin: Given the entry O=[N+]([O-])c1nccn1COCCBr , report its measured GI50.
stdout: > 100 µM (inactive)

Reference for the values: ChEMBL document CHEMBL1201862
